- method.notes: ATG_M_19_CIS: Attagene CIS-FACTORIAL HepG2 Assay for M19 Transcription Factor (Internal Marker) (AID 2282939)
- conditions.used: HepG2 Attagene CIS-FACTORIAL M19 internal marker reporter; actives raise or lower the signal
- Method: ATG_CIS is a cell-based, multiplexed-readout assay that uses HepG2, a human liver cell line, with measurements taken at 24 hours after chemical dosing in a 24-well plate.ATG_M_19_CIS is one of 52 assay component(s) measured or calculated from the ATG_CIS assay. […] This assay endpoint, ATG_M_19_CIS, was analyzed with bidirectional fitting relative to DMSO as the negative control and baseline of activity. […]
Activity calls are given as the source filed them. Rule for the calls: active = hit-call score of the fitted dose curve at least 0.9, where 1 is the maximum; inactive = score below 0.9.
quantity: outcome

Worked set:
molecule.smiles: C=C(C)C(=O)[O][Sn]([CH2]CCC)([CH2]CCC)[CH2]CCC
quantity: outcome
experimental.result: inactive
--
molecule.smiles: CCCCP(CCCC)CCCC
quantity: outcome
experimental.result: inactive
--
molecule.smiles: COc1ccc(C=O)cc1OC
quantity: outcome
experimental.result: inactive
--
molecule.smiles: Cc1ccc(N)cc1Cl
quantity: outcome
experimental.result: inactive
--
molecule.smiles: Cc1ccccc1C(=O)Nc1cccc(OC(C)C)c1
quantity: outcome
experimental.result: inactive

Give me outcome for each of these compounds, listed below.
1. NC(=S)Nc1ccccc1
2. C=CC#N
3. N#Cc1ccccn1
4. N#CN=C(N)N

a:
1: inactive; 2: inactive; 3: inactive; 4: inactive

###

- Read-out: Macrophage colony-stimulating factor (MCSF), CSF1 (gene 1435)
- method.notes: BSK_LPS_MCSF: BioMAP Diversity Plus: LPS Assay for Macrophage colony-stimulating factor (MCSF) Biomarker Activity (AID 2283083)
- conditions.used: primary human HUVEC with PBMC; actives raise or lower the signal
Active and inactive are the calls of the source. Rule for the calls: active = hit-call score of the fitted dose curve at least 0.9, where 1 is the maximum; inactive = score below 0.9.
Outcome (select one): active, inactive

Answered examples (5):
compound: CCC(=O)C(CC(C)N(C)C)(c1ccccc1)c1ccccc1 (configuration not stated)
assigned.category: inactive

compound: CCCCCCCCc1ccc(O)cc1
assigned.category: active

compound: CC(=O)C(Cl)C(=O)N(C)C (configuration not stated)
assigned.category: active

compound: COC[C@H](C)N(C(=O)CCl)c1c(C)csc1C
assigned.category: inactive

compound: CC(C)(OO)c1ccccc1
assigned.category: inactive

q: Check the results log: what was the call for CCOP(=S)(OCC)SCSP(=S)(OCC)OCC ?
a: active

q: What was the test verdict on CC(C)(c1ccccc1)c1ccc(O)c(C(C)(C)c2ccccc2)c1 ?
a: active

q: What call does the record list for CCCCC(CC)CO[N+](=O)[O-] (configuration not stated) ?
a: inactive

q: Recorded call for O=Cc1cccc(Oc2ccccc2)c1 ?
a: inactive

q: GET /call?item= COP(=S)(OC)Oc1c(Cl)cc(C)cc1Cl returns the recorded outcome of this test.
a: inactive

q: Would you mind telling me which call this test gave Nc1ncc([N+](=O)[O-])s1 ?
a: inactive

q: # lookup: test call for COP(=S)(OC)Oc1ccc(Sc2ccc(OP(=S)(OC)OC)cc2)cc1
a: active

###

- Read-out: serum amyloid A (SAA), SAA1 (gene 6288)
- method.notes: BSK_CASM3C_SAA: BioMAP Diversity Plus: CASM3C Assay for serum amyloid A (SAA) Biomarker Activity (AID 2283049);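 note: SAA protein level quantified by ELISA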
- conditions.used: primary human coronary artery smooth muscle cells; actives raise or lower the signal
Calls of active or inactive are those of the source. Rule for the calls: active = hit-call score of the fitted dose curve at least 0.9, where 1 is the maximum; inactive = score below 0.9.
Please answer using one outcome listed in active, inactive

compound: CCNc1nc(NC(C)(C)C)nc(SC)n1
assigned.category: inactive

q: Please share the test call associated with COP(=S)(OC)Oc1ccc(S(=O)(=O)N(C)C)cc1 .
a: inactive

q: I would be grateful if you could indicate the recorded call for C[C@]12CCC(=O)C[C@@H]1CC[C@@H]1[C@@H]2CC[C@]2(C)[C@@H](O)CC[C@@H]12 .
a: inactive

q: How did this test come out for CCOP(=S)(OCC)SCSP(=S)(OCC)OCC ?
a: inactive

q: Please share the test call associated with O=C(OC1CCCCC1)c1ccccc1C(=O)OC1CCCCC1 .
a: inactive

q: Which outcome did this test record for the compound O=Cc1cccc(Oc2ccccc2)c1 ?
a: inactive
